Test system: TYKNU
Test: fractional viability relative to vehicle; TYKNU is a high-grade serous ovarian cancer line; higher = less growth inhibition
Conditions: 2uM; 72 h; genotype: DNM1L knockout (sgDNM1L #1)
The full ranking holds about 2,000 compounds; the median of “fractional viability relative to vehicle” is about 0.91, and the lowest 2% start at about 0.045. Only a selection was taken, and the lowest values are over-represented in it overall.
Response field label takes Y when fractional viability is strictly below 0.9 and N in all other cases.

{"Compound": "Cc1cc(C)nc(NS(=O)(=O)c2ccc(NC(=S)NC(=O)COc3ccc(Br)cc3Cl)cc2)n1", "Label Class": "N"}
{"Compound": "Cn1cncc1[C@@](N)(c1ccc(Cl)cc1)c1ccc2c(c1)c(-c1cccc(Cl)c1)cc(=O)n2C", "Label Class": "Y"}
{"Compound": "CC(CNC(=O)c1cccnc1)NC(=O)c1cccnc1 (configuration not stated)", "Label Class": "Y"}
{"Compound": "CC[C@H](Nc1ncnc2[nH]cnc12)c1nc2cccc(F)c2c(=O)n1-c1ccccc1", "Label Class": "N"}
{"Compound": "C=CC(=O)Nc1cccc(Sc2nc(Nc3ccc(N4CCN(C)CC4)cc3)ncc2Cl)c1", "Label Class": "N"}
{"Compound": "C=CC(=O)Nc1ccc2ncnc(Nc3ccc(OCc4cccc(F)c4)c(Cl)c3)c2c1", "Label Class": "Y"}
{"Compound": "COc1ccc(C[C@H](NC(=O)[C@H](C)NC(=O)CN2CCOCC2)C(=O)N[C@@H](Cc2ccccc2)C(=O)[C@@]2(C)CO2)cc1", "Label Class": "Y"}
{"Compound": "CS(=O)(=O)CCNCc1ccc(-c2ccc3ncnc(Nc4ccc(OCc5cccc(F)c5)c(Cl)c4)c3c2)o1", "Label Class": "N"}
{"Compound": "OC1(c2ccc(Cl)c(C(F)(F)F)c2)CCN(CCCC(c2ccc(F)cc2)c2ccc(F)cc2)CC1", "Label Class": "Y"}
{"Compound": "COC(=O)[C@H](Cc1ccccc1)NC(=O)[C@@H](N)CC(=O)O", "Label Class": "N"}
{"Compound": "Nc1nccc(Oc2ccc(NC(=O)c3c[nH]cc(-c4ccc(F)cc4)c3=O)cc2F)c1Cl", "Label Class": "N"}
{"Compound": "Cc1ccc(S(=O)(=O)c2ccc([N+](=O)[O-])o2)cc1", "Label Class": "Y"}
{"Compound": "COc1ccc([C@]2(C#N)CC[C@@H](C(=O)O)CC2)cc1OC1CCCC1", "Label Class": "N"}
{"Compound": "COC[C@H](NC(=O)c1cnc(C)s1)C(=O)N[C@@H](COC)C(=O)N[C@@H](Cc1ccccc1)C(=O)[C@@]1(C)CO1", "Label Class": "Y"}
{"Compound": "O=C(Nc1nc2cccc(-c3ccc(CN4CCS(=O)(=O)CC4)cc3)n2n1)C1CC1", "Label Class": "Y"}
{"Compound": "C[C@H]1COC2=C1C(=O)C(=O)c1c2ccc2c1CCCC2(C)C", "Label Class": "Y"}

Numbers sourced from the supplement of paper PMC5919970.
